test system: K4 kissing-loop RNA reporter; test: apparent KD of K4 kissing-loop reporter; higher = weaker reporter binding; settings: Eterna round: R107; input ligand: arginine 13.2 mM;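 note: bound reporter read as fluorescence of individual clusters on recovered sequencing chips by microscopy, with normalized cluster intensities fitted with a binding model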
We use 200 nM as the dividing line for apparent KD of K4 kissing-loop reporter: on or above the line is yes, below is no.

// known answers, use as guide
# Seq text, Group
records = [
    ("AUCCGAGAAUAUGAUACCAGCUGAGUGUAUCAAGACCGUAUCUCCCGUGCUAGUGAUGUUAGCCCUUGGCAGCAUAUGAAAGCGG [theeternabot_exclusion_KL_Theo_B_15]", "yes"),
    ("CCGAAGAACCAGUGAUGUUGGUUGACUAGACAGGAUAUGAGCAACAUCAGAAGGGUCUGGCUUCGGGAGUAGGUCGCGCUGACCC [Diarrebi]", "yes"),
    ("AGAAACUUGUAUGUCGGGUGUGCGCGCGAUACCAGCCAAAUGGAUGGCCCUUGGCAGCGCAGCGAGUGAUGUUCGCCCGCUUGAC [Exclusion Theophylline A GF 22]", "yes"),
    ("GGGCCUGGGCCCGGAAGGGCCUGGGCCCGUUAGGAUAUGACGUGAUUCAGAAGGGAUGGGUGGAGUGAUGUUCCACCCGAGAGGG [#2 Same State - FMN A Attempt #25 (HarryS)]", "no"),
]

Confirm if apparent KD of K4 kissing-loop reporter reported for the sequence AACGUUUUGAGAAGGAGCGCGAUAAGCAGUGAUGUUGCUAUAAUUCUAUUUCUAUUUAAUUCGCAGGUAGGUCGCUCAAUACGUA [JR_SSArginiB_Sub019] is 200 nM or above.
no

Exam item: decide whether the reported apparent KD of K4 kissing-loop reporter for GCCGUACGCAUGGAUACCAGCAAUUAUGCUCGUGAUCUAGUGAUGUUAGUGGCGAAAGUUUGCCCUUGGCAGCCAUGCGUACGGC is at least 200 nM.
no
